biological target: STK4 (human) (UniProt Q13043)
Sequence (Q13043 whole entry, looked up): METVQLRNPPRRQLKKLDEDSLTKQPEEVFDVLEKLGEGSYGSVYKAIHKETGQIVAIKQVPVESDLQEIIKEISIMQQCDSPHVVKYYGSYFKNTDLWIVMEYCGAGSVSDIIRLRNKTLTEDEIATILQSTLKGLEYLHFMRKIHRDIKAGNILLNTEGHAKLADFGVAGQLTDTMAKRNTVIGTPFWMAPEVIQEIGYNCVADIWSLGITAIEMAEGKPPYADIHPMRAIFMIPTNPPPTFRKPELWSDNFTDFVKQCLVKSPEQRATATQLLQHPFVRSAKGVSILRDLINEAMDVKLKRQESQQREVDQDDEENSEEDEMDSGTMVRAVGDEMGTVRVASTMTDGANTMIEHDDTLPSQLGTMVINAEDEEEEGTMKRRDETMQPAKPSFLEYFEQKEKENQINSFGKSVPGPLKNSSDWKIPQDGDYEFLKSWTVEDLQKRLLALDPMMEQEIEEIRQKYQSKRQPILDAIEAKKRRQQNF
pKd: −log10 of the molar value.
observable: pKd

stdin: Dear colleague, I am looking for the recorded pKd of the following molecule: "Oc1ccc(-c2nc(-c3ccc(F)cc3)c(-c3ccncc3)[nH]2)cc1"
stdout: < 5.00

###

target: MAPK12 (human)
observable: Kd

stdin: Dear colleague, I am looking for the recorded Kd of the following compound: "CCOc1cc2ncc(C#N)c(Nc3ccc(F)c(Cl)c3)c2cc1NC(=O)/C=C/CN(C)C"
stdout: > 10 µM

###

target: CLK3 (human) (UniProt P49761)
Sequence (P49761 whole entry, looked up): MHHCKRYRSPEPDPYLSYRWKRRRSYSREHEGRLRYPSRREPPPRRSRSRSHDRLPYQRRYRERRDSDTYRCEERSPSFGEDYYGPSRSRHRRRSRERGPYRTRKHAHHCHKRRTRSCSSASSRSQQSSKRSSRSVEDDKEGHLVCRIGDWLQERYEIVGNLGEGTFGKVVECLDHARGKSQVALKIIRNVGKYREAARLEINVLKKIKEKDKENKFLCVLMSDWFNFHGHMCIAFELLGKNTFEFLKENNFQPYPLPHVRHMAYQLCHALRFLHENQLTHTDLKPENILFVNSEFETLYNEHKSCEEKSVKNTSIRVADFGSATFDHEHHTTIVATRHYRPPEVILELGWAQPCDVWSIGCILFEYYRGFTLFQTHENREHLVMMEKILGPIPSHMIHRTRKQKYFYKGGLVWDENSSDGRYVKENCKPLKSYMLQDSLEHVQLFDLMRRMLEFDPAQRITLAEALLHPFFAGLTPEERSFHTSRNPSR
observable: Kd

stdin: Dear colleague, I am looking for the recorded Kd of the following compound: "Oc1ccc(-c2nc(-c3ccc(F)cc3)c(-c3ccncc3)[nH]2)cc1"
stdout: > 10 µM

###

molecular target: EPHA6 (human)
observable: Kd

stdin: Dear colleague, I am looking for the recorded Kd of the following molecule: "Oc1ccc(-c2nc(-c3ccc(F)cc3)c(-c3ccncc3)[nH]2)cc1"
stdout: > 10 µM

###

target: TNK2 (human) (UniProt Q07912); assay: KINOMEscan competition binding
Sequence (Q07912 whole entry, looked up): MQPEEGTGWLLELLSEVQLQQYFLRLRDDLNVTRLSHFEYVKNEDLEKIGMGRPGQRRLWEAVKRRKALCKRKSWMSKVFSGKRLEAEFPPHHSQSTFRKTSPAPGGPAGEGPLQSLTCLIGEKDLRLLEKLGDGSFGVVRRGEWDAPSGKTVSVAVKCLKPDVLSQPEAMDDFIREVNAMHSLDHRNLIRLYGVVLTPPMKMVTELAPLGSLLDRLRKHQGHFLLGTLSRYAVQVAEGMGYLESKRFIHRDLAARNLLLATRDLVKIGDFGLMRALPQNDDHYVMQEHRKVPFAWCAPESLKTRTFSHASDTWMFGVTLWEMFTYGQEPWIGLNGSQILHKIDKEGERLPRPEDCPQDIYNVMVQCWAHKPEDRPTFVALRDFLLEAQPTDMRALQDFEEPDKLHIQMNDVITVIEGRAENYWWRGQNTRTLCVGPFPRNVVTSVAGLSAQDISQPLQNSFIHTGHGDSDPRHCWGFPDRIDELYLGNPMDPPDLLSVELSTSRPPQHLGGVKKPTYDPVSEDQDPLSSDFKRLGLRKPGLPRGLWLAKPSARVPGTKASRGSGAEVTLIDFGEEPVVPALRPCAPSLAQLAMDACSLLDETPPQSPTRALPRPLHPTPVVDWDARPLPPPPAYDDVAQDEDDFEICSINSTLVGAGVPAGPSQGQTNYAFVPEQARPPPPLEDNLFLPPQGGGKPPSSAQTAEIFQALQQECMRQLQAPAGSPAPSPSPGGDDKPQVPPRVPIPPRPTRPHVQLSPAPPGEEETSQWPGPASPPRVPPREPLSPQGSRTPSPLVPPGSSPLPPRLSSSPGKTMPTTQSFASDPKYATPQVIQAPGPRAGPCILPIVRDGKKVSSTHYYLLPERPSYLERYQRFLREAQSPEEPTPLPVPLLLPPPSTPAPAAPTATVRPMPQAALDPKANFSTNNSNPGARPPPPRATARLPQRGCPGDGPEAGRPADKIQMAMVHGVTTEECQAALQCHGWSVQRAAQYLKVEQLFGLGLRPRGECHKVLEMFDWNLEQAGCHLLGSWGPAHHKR
observable: Kd

stdin: Form field: Kd recorded for "Oc1ccc(-c2nc(-c3ccc(F)cc3)c(-c3ccncc3)[nH]2)cc1" with TNK2 (human) (UniProt Q07912) (enter value)
stdout: > 10 µM

###

Assay system TTK (human); read-out recorded as Kd.

Check out these entries, answers already filled in.
stdin: Dear colleague, I am looking for the recorded Kd of the following molecule: "CCOc1cc2ncc(C#N)c(Nc3ccc(F)c(Cl)c3)c2cc1NC(=O)/C=C/CN(C)C"
stdout: > 10 µM

stdin: // same read-out, input: "Oc1ccc(-c2nc(-c3ccc(F)cc3)c(-c3ccncc3)[nH]2)cc1"
stdout: > 10 µM

Kindly review the next molecule as well.
stdin: Dear colleague, I am looking for the recorded Kd of the following molecule: CS(=O)c1ccc(-c2nc(-c3ccc(F)cc3)c(-c3ccncc3)[nH]2)cc1 (stereo not drawn)
stdout: > 10 µM

###

target: MYLK2 (human) (UniProt Q9H1R3)
Sequence (Q9H1R3 whole entry, looked up): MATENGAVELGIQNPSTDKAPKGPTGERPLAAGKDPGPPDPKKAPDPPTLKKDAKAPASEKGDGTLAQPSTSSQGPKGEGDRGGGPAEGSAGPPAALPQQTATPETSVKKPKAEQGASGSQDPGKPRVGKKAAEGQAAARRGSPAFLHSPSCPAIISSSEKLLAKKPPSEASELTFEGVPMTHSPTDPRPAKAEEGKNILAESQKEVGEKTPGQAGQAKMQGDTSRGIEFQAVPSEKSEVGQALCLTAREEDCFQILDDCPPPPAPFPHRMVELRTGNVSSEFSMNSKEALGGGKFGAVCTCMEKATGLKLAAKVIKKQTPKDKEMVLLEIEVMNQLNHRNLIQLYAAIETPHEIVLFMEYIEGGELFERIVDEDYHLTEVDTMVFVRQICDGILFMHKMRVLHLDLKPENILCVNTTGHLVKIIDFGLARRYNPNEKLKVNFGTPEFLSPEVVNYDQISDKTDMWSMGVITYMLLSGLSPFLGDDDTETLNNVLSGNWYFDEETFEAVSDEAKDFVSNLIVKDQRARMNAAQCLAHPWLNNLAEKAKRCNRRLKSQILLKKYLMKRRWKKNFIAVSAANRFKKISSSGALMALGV
pKd: −log10 of the molar value.
observable: pKd

stdin: Dear colleague, I am looking for the recorded pKd of the following molecule: "Oc1ccc(-c2nc(-c3ccc(F)cc3)c(-c3ccncc3)[nH]2)cc1"
stdout: < 5.00

###

Assay system EPHA7 (human) (UniProt Q15375); read-out recorded as Kd.

stdin: Dear colleague, I am looking for the recorded Kd of the following molecule: "CCOc1cc2ncc(C#N)c(Nc3ccc(F)c(Cl)c3)c2cc1NC(=O)/C=C/CN(C)C"
stdout: > 10 µM

Kindly review the next molecule as well.
stdin: Dear colleague, I am looking for the recorded Kd of the following molecule: "Oc1ccc(-c2nc(-c3ccc(F)cc3)c(-c3ccncc3)[nH]2)cc1"
stdout: > 10 µM

###

biological target: ABL1 (human) (UniProt P00519)
Sequence (P00519 whole entry, looked up): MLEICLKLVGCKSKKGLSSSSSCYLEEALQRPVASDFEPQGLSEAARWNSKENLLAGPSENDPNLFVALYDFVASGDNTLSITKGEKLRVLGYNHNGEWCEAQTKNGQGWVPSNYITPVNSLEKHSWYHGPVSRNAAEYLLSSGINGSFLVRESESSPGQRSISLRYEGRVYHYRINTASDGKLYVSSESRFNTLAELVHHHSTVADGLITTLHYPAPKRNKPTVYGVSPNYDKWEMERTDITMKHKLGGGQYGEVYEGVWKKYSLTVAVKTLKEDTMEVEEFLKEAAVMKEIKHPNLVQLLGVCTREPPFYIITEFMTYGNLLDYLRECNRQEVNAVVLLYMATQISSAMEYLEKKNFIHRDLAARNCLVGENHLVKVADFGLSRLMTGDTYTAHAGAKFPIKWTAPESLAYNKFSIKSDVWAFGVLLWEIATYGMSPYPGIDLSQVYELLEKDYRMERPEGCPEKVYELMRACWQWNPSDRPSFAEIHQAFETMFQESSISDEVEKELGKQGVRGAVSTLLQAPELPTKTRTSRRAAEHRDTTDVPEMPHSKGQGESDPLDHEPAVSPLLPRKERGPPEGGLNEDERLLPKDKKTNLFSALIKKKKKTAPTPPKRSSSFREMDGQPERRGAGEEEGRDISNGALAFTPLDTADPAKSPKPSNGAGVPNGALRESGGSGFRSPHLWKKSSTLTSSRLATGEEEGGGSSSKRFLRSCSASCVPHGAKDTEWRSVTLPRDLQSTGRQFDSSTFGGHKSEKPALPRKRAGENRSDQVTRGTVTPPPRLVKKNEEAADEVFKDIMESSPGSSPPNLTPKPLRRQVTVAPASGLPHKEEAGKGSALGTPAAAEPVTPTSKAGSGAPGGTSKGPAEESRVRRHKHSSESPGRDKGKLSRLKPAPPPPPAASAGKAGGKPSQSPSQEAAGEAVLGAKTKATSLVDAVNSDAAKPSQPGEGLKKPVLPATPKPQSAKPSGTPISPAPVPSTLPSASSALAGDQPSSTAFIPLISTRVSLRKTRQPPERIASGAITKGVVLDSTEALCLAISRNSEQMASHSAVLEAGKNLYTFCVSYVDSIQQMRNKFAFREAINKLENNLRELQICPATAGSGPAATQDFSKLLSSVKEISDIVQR
observable: Kd

stdin: Dear colleague, I am looking for the recorded Kd of the following compound: "Oc1ccc(-c2nc(-c3ccc(F)cc3)c(-c3ccncc3)[nH]2)cc1"
stdout: > 10 µM

###

biological target: STK16 (human)
pKd: −log10 of the molar value.
observable: pKd

stdin: Dear colleague, I am looking for the recorded pKd of the following molecule: "Oc1ccc(-c2nc(-c3ccc(F)cc3)c(-c3ccncc3)[nH]2)cc1"
stdout: < 5.00

Kindly review the next molecule as well.
stdin: Dear colleague, I am looking for the recorded pKd of the following molecule: "CCOc1cc2ncc(C#N)c(Nc3ccc(F)c(Cl)c3)c2cc1NC(=O)/C=C/CN(C)C"
stdout: < 5.00

All figures here come from the kinase profiling compilation of Christmann-Franck et al. (2016).
